Target: recombinant soluble homotrimeric HA of A/Solomon Islands/3/06 (H1N1) (Influenza A virus A/Solomon Islands/3/2006 (H1N1))
Test: HA microarray, BCC supernatant
Conditions: remark: other sources report otherwise
This section presents binders with their documented Trimeric HA Binding RLU values.
READOUT KIND: Trimeric HA Binding RLU (RLU)

BINDER	EXPERIMENTAL RESULT
TCN-533 (5256_A17) (antibody, V domains shown) VH: QVQLVQSGADVKKPGSSVTVSCKASGGSFSNYGINWVRQAPGQGLEWMGGIIPLINAPNYAPKFQGRVTITADMFSNIVSLQLTSLRTDDTAVYYCARRKMTTAIDYWGQGTLVTVSS VL: QPVLSQPPSASASLGASVTLTCTLSSGFDNYQVAWYQQRPGKGPRFVMRVGNGGNVASKGDGIPDRFSVSGSGLNRYLTIKNIQEDDESDYYCGADHGSGNNFVSPYVFGGGTKLTVL	39200
TCN-544 (5082_A19) (antibody, V domains shown) VH: QVQLQESGPGLVKPSETLSLTCTVSRGSIGHYFWSWIRQPPGKGLEWIGYISYSGSTKYNPSLRSRVTISVDTSKNQFSLNLNSVTATDTALYYCAREDYDILTGAGPGMEVWGQGTTVTVSS VL: QSMLTQPPSASGTPGQRVTISCSGSSSNIGSNTVNWFKHLPGTAPKLLIYRNDLRPSGVPDRFSGSKSGTSASLAISGLQSEDEADYYCATWDDSLNGFYVFGTGTKVTVL	179
TCN-538 (3206_O17) (antibody, V domains shown) VH: QITLKESGPTLVKPTQTLTLTCVFSGFSLSITGVRVGWIRQPPGKALEWLALISWDDEKHYSPSLQSRLTITKDTSKNQVVLTMTNLDPVDTATYYCARSTDRGHVLRYFGWMLPGDAFDVWGQGTMVTVSS VL: DIVMTQSPDFLPVSLGERATINCKSSQRVLYSSNNKNYLAWYQLKPGQPPKLIIYWASTRESGVPDRFSGSGSGTEFTLTISSLQAEDVAVYYCQQYYSRPYTFGQGTKLEIK	33200
TCN-555 (5246_L16) (antibody, V domains shown) VH: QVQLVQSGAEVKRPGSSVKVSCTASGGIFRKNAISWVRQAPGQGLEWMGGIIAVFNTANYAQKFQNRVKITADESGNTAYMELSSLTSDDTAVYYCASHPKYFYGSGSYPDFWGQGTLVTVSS VL: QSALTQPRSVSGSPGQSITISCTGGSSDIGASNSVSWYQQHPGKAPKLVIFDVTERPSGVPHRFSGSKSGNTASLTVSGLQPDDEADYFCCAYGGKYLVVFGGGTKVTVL	26400
TCN-526 (5084_C17) (antibody, V domains shown) VH: EVLMVESGGGLVQPGGSVRLSCVASGFSFSSHWMTWVRQAPGKGLEWVANIEDDGGDKYYVDSVKGRFIISRDNAKNSVYLQMNSLRAEDTAVYFCARGSGSSDRSDYDPHYYYYLDVWGKGATVTVSS VL: DIQLTQSPSSLSASVGDRVTITCRASQSISRYLNWYQQKPGKAPKLLLFAASTLLDGVPSRFSGSGSGTDFTLTISSLQPEDFATYYCQRNHSPSWTFGQGTRVEIK	341
